- particulars: in ethanol, 343.2 K
readout kind: solubility (mole fraction)
Give a plain numeric answer without units written out.

Record summary for C[C@@H]1CC[C@H]2[C@@H](C)C(=O)O[C@@H]3O[C@@]4(C)CC[C@@H]1[C@]32OO4 : reported solubility (mole fraction) = 0.0159

----------
- particulars: in water, 328.15 K
Known solubility (mole fraction) of a selection of compounds
Give a plain numeric answer without units written out.

{"columns": ["structure smiles", "solubility (mole fraction)"],
 "data": [
  ["CC(C)C[C@H](CN)CC(=O)O", 0.00531]
]}

# input for lookup
Record summary for Cc1nc2n(c(=O)c1CCN1CCC(c3noc4cc(F)ccc34)CC1)CCCC2 : reported solubility (mole fraction) = 5e-07
